# TESTED_ON: UniProtKB P61169
# Sequence (P61169 whole entry): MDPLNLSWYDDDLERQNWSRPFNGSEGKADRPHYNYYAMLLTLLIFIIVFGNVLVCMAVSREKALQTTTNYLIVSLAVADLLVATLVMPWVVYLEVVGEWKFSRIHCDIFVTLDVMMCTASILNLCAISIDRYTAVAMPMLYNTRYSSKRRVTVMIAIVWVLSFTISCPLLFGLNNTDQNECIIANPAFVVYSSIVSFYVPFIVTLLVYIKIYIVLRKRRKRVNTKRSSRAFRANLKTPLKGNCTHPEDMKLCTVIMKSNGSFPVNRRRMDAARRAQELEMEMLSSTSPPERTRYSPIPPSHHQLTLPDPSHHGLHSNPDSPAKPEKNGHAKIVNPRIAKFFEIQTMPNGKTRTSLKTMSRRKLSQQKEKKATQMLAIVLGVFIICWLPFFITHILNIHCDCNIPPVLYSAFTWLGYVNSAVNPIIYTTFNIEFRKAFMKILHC
# PROTOCOL_NOTES: Binding affinity using [3H]-spiperone radioligand competitive binding assay against dopamine receptor D2
OBSERVED_PROPERTY: Ki (µM)

>  <MOLECULE>
NC[C@@H]1OC(c2ccccc2)Cc2c1ccc(O)c2O (stereo not given in full)

>  <TESTED_ON>
UniProtKB P61169

>  <UNIT>
µM

>  <Ki>
0.776

$$$$
>  <MOLECULE>
NC[C@@H]1OC(COc2ccccc2)Cc2c1ccc(O)c2O (stereo not given in full)

>  <TESTED_ON>
UniProtKB P61169

>  <UNIT>
µM

>  <Ki>
1.28

$$$$

I: NC[C@@H]1OC(C2CCCCC2)Cc2c1ccc(O)c2O (stereo not given in full)
II: Oc1ccc2c(c1O)CC(C1CCCCC1)O[C@H]2CNC1CC1 (stereo not given in full)
Hey, between I and II which has a smaller measured Ki? Respond with the label that goes with your answer.
II
(II: 0.636 µM, I: 1.12 µM)
